- Tested on: SW-620 colon
- methodNotes: NCI-60 one-dose screen, 48 h (100 = growth as untreated, 0 = no growth, -100 = all killed)
- conditions: 10 µM unless noted
The panel holds about 83,000 compounds, 20% with a hit somewhere; the sample as a whole holds those more often.
testReadout: growth (%)

1) CCCCCCCCC(=O)Nc1ccc(O)cc1    103
2) N=C(N)c1ccc(-c2ccc(-c3ccc(F)cc3)s2)cc1    -87.9
3) COc1ccc2c(c1)/C(=C/c1c(-c3cc(OC)c(OC)c(OC)c3)nc3sccn13)C(=O)N2    99.9
4) COc1cc(-c2c3c(cn2CCN2CCCCC2)-c2oncc2CC3)cc(OC)c1OC    95.2
5) O=C1C(=O)c2ccccc2C(O)=C1CCCc1ccc(Oc2ccccc2)cc1    39.9
6) c1ccc(Nc2ncc3c(n2)-c2cccn2CC3)cc1    102
7) O=C(/C=C/c1ccc(Cl)cc1)c1ccc(Cl)cc1    88.8
8) COc1ccc(-c2nc(SCC(C)C)nc(Nc3ccccc3)c2C#N)cc1    67.8
9) COc1ccc(C(=O)N2N=C(c3ccc(Br)cc3)CC2c2cn(-c3ccccc3)nc2-c2ccccc2)cc1 (stereo unspecified)    29.6
10) C[C@]12CC[C@H]3[C@@H](CC[C@H]4C[C@@H](O)CC[C@@]43C)[C@@H]1CC(=O)C2    103
11) COc1cc(NC(C)CCCN)c2nc(C)ccc2c1OC (stereo unspecified)    104
12) [2H]c1nc(=Nc2cc(NC(=O)C=C)c(N(C)CCN(C)C)cc2OC)[nH]c(-c2cn(C([2H])([2H])[2H])c3ccccc23)c1[2H]    21.1
13) COc1ccc2c(N)ncc(C#Cc3cc(C(=O)Nc4ccc(CN5CCN(C)CC5)c(C(F)(F)F)c4)cnc3C)c2c1    -57.7
14) Cc1c(Cc2ccccc2)c(=O)oc2c(C)c(OCC(=O)n3nc(C#N)cc3N)ccc12    101
15) Brc1c(-c2ccncc2)nc2n1CCS2    105
16) O=C1C(Cl)=C(Nc2ccc(Nc3ccccc3)c(NC3=C(Cl)C(=O)c4ccccc4C3=O)c2)C(=O)c2ccccc21    33.8
17) CCN(CC)CCCNc1c2ccc(Cl)cc2nc2ccc(OC)cc12    3.44
18) COC(=O)CC(=O)C(=O)OC    104
19) CC(=O)OC1/C=C\CC/C=C\C1 (stereo unspecified)    101
20) Oc1ccccc1/C=N/N=C/c1c(O)ccc2ccccc12    95
21) O=C(O)c1ccc(-c2nn(-c3ccc(C(=O)O)cc3)cc2CNc2ccc(Br)cc2)cc1    107

* * *

- Tested on: SK-MEL-5 melanoma
- methodNotes: NCI-60 one-dose screen, 48 h (100 = growth as untreated, 0 = no growth, -100 = all killed)
- conditions: 10 µM unless noted
This is part of a sample that, as a whole, favours compounds with a hit. Of some 83,000 tested, about 20% had one in any assay.
A collection of molecules and their measured growth
testReadout: growth (%)

1. C=CCSc1nnc(COc2ccc3c(C)c(Cc4ccccc4)c(=O)oc3c2C)o1    101
2. COc1ccc(Cn2cc3c(c2-c2ccccc2)CCc2cnoc2-3)cc1OC    10.5
3. CC(=O)C(CO)C(=O)Nc1ccccc1 (stereo not given)    103
4. COC(=O)c1ccc2[nH]c(O)c(C(=Nc3ccc(N(C)C(=O)CN4CCN(C)CC4)cc3)c3cccc(OC)c3)c2c1    6.71
5. COc1ccc(/C(=C(\c2ccccc2)[N+](=O)[O-])c2ccc(OCCN3CCCC3)cc2)cc1    -78.2
